Attribution: patent US8362015B2

- assay-method-text: Stability in buffer at various pH values (HPLC, unchanged test substance)
- Type: physicochemical
- test-settings: buffer pH 7.4, 25° C., 4 h, acetonitrile/buffer 1:1
- Experimental: 0.3 mg of the test substance is weighed into a 2 ml HPLC vial and 0.5 ml of acetonitrile is added. The substance is dissolved by putting the sample vessel in an ultrasonic bath for about 10 seconds. […] 5 μl portions of the test solution are analysed by HPLC for their content of unchanged test substance every hour over a period of 24 hours at 25° C. The percentage areas of the appropriate peaks are used for quantification. […]
Structures can show the parent of a compound that is named as a salt.
measured-endpoint: % test substance after 4 h [F(t = 4 h) × 100/F(t = 0 h)] (%)
Express it in %; write the number only.

Field: example entries. Status: answers known.
compound: NCCCC[C@H](N)C(=O)SCCCCC(=O)N(C[C@H]1CN(c2ccc(N3CCOCC3=O)cc2)C(=O)O1)C(=O)c1ccc(Cl)s1 [Example 6, dihydrochloride]
test-value: 90

compound: CC(C)[C@H](N)C(=O)SCCCC(=O)N(C[C@H]1CN(c2ccc(N3CCOCC3=O)cc2)C(=O)O1)C(=O)c1ccc(Cl)s1 [Example 8, hydrochloride]
test-value: 86

Request: Entry under review: NCC(=O)SCCCCC(=O)N(C[C@H]1CN(c2ccc(N3CCOCC3=O)cc2)C(=O)O1)C(=O)c1ccc(Cl)s1 [Example 5, hydrochloride] . Reported % test substance after 4 h [F(t = 4 h) × 100/F(t = 0 h)]?
Result: 96

Request: Entry under review: N[C@@H](Cc1c[nH]cn1)C(=O)NCCCCC(=O)N(C[C@H]1CN(c2ccc(N3CCOCC3=O)cc2)C(=O)O1)C(=O)c1ccc(Cl)s1 [Example 12, hydrochloride] . Reported % test substance after 4 h [F(t = 4 h) × 100/F(t = 0 h)]?
Result: 99

Request: Entry under review: NCC(=O)OCCCCC(=O)N(C[C@H]1CN(c2ccc(N3CCOCC3=O)cc2)C(=O)O1)C(=O)c1ccc(Cl)s1 [Example 2, hydrochloride] . Reported % test substance after 4 h [F(t = 4 h) × 100/F(t = 0 h)]?
Result: 99

Request: Entry under review: CC(C)[C@H](N)C(=O)SCCCCC(=O)N(C[C@H]1CN(c2ccc(N3CCOCC3=O)cc2)C(=O)O1)C(=O)c1ccc(Cl)s1 [Example 4, hydrochloride] . Reported % test substance after 4 h [F(t = 4 h) × 100/F(t = 0 h)]?
Result: 92
